target: HLA-DRB1*01:01 (Homo sapiens, UniProt P01903+P01911, A100R/D57E/F55L/F60I/F76Y/I96L/L162R/M171V/P40L/Q125E/R42F/V115G/Y59C); construct: EBV transformed homozygous cell lines were used as sources of MHC molecules; endogenous in cells; host or cells: EBV transformed homozygous cell lines; experiment: HLA class II peptide binding, inhibition of radiolabeled peptide binding to purified MHC; conditions: ratio of WT IC50 to Cit IC50; >1 = citrullination increases binding
Square brackets hold non-standard residues; d marks the D form. Peptide text beside a SMILES is read from it. Cit = NC(=O)NCCC[C@H](N)C(=O)O
Readout label: DRB1*01:01 binding capacity, WT/cit ratio

The following molecules have reported results that may help.
Molecule	Reading
C[C@H](NC(=O)CNC(=O)[C@H](CCCCN)NC(=O)[C@@H]1CCCN1C(=O)CNC(=O)[C@H](CC(=O)O)NC(=O)[C@H](CCCCN)NC(=O)CNC(=O)[C@H](CO)NC(=O)[C@@H]1CCCN1C(=O)CN)C(=O)N[C@@H](CCCNC(N)=O)C(=O)NCC(=O)N[C@@H](CC(=O)O)C(=O)N[C@@H](CO)C(=O)O [GPSGKDGPKGAXGDS] (H-GPSGKDGPKGA[Cit]GDS-OH; N-terminus and C-terminus assumed)	1.0
CC[C@H](C)[C@H](NC(=O)[C@H](CCCNC(N)=O)NC(=O)[C@H](CS)NC(=O)[C@@H]1CCCN1)C(=O)N[C@@H](CS)C(=O)N[C@H](C(=O)N[C@@H](CS)C(=O)N[C@@H](CC(=O)O)C(=O)N[C@H](C(=O)NCC(=O)N[C@H](C(=O)N[C@H](C(=O)N[C@@H](CC(C)C)C(=O)N[C@@H](CS)C(=O)N[C@@H](CC(=O)O)C(=O)O)C(C)C)[C@@H](C)O)[C@@H](C)O)C(C)C [PCXICVCDTGTVLCD] (H-PC[Cit]ICVCDTGTVLCD-OH; N-terminus and C-terminus assumed)	0.463
C[C@H](NC(=O)CNC(=O)[C@H](C)NC(=O)[C@H](CCC(=O)O)NC(=O)CNC(=O)[C@H](CCCNC(N)=O)NC(=O)[C@H](CC(=O)O)NC(=O)CNC(=O)[C@H](CCC(N)=O)NC(=O)[C@H](CCCCN)NC(=O)CNC(=O)[C@@H](NC(=O)[C@@H]1CCCN1)[C@@H](C)O)C(=O)N[C@@H](CCC(N)=O)C(=O)NCC(=O)O [PTGKQGDXGEAGAQG] (H-PTGKQGD[Cit]GEAGAQG-OH; N-terminus and C-terminus assumed)	0.6
C[C@H](NC(=O)CNC(=O)[C@@H]1CCCN1C(=O)[C@H](CO)NC(=O)CNC(=O)[C@H](CCC(=O)O)NC(=O)[C@@H](N)CCCNC(N)=O)C(=O)N[C@@H](CC(=O)O)C(=O)NCC(=O)N1CCC[C@H]1C(=O)N1CCC[C@H]1C(=O)NCC(=O)N[C@@H](CCCNC(=N)N)C(=O)N[C@@H](CC(=O)O)C(=O)NCC(=O)O [XEGSPGADGPPGRDG] (H-[Cit]EGSPGADGPPGRDG-OH; N-terminus and C-terminus assumed)	1.0
C[C@H](NC(=O)CNC(=O)[C@H](CCCCN)NC(=O)[C@@H]1CCCN1C(=O)CNC(=O)[C@@H](N)CC(=O)O)C(=O)N[C@@H](CCCNC(N)=O)C(=O)NCC(=O)N[C@@H](CC(=O)O)C(=O)N[C@@H](CO)C(=O)NCC(=O)N1CCC[C@H]1C(=O)N1CCC[C@H]1C(=O)NCC(=O)N[C@@H](CCCNC(=N)N)C(=O)O [DGPKGAXGDSGPPGR] (H-DGPKGA[Cit]GDSGPPGR-OH; N-terminus and C-terminus assumed)	0.533

I need DRB1*01:01 binding capacity, WT/cit ratio for every entry listed below, if you could help.
1. CC(C)C[C@H](NC(=O)CNC(=O)[C@H](CCC(N)=O)NC(=O)[C@@H]1CCCN1C(=O)CNC(=O)[C@@H]1CCCN1C(=O)[C@@H]1CCCN1C(=O)CNC(=O)[C@H](CCC(=O)O)NC(=O)[C@H](C)NC(=O)CN)C(=O)N[C@@H](C)C(=O)NCC(=O)N[C@@H](CCC(N)=O)C(=O)N[C@@H](CCCNC(N)=O)C(=O)O [GAEGPPGPQGLAGQX] (H-GAEGPPGPQGLAGQ[Cit]-OH; N-terminus and C-terminus assumed)
2. CSCC[C@H](NC(=O)[C@H](CCC(=O)O)NC(=O)[C@H](CCCNC(=N)N)NC(=O)[C@H](CCSC)NC(=O)[C@H](CCC(N)=O)NC(=O)[C@H](CCCNC(N)=O)NC(=O)[C@H](CCC(=O)O)NC(=O)[C@H](CC(C)C)NC(=O)[C@H](CO)NC(=O)[C@H](CCC(=O)O)NC(=O)[C@H](CC(N)=O)NC(=O)[C@@H](N)[C@@H](C)O)C(=O)N[C@@H](CCC(=O)O)C(=O)N[C@@H](CCC(=O)O)C(=O)N[C@@H](CC(N)=O)C(=O)O [TNESLEXQMREMEEN] (H-TNESLE[Cit]QMREMEEN-OH; N-terminus and C-terminus assumed)
3. CC(C)[C@H](NC(=O)CNC(=O)[C@H](C)NC(=O)[C@H](C)NC(=O)CNC(=O)[C@H](CC(=O)O)NC(=O)[C@H](CCCNC(N)=O)NC(=O)CNC(=O)[C@@H]1CCCN1C(=O)[C@@H]1CCCN1C(=O)CNC(=O)[C@H](CC(=O)O)NC(=O)[C@H](C)NC(=O)CN)C(=O)N[C@@H](CCCCN)C(=O)O [GADGPPGXDGAAGVK] (H-GADGPPG[Cit]DGAAGVK-OH; N-terminus and C-terminus assumed)
4. CC(C)[C@H](NC(=O)[C@H](CC(=O)O)NC(=O)[C@H](CCCCN)NC(=O)[C@H](CC(=O)O)NC(=O)[C@H](CC(N)=O)NC(=O)[C@H](Cc1ccc(O)cc1)NC(=O)[C@H](CCCNC(N)=O)NC(=O)[C@H](CCC(N)=O)NC(=O)CNC(=O)[C@H](CC(=O)O)NC(=O)[C@@H](N)CCC(N)=O)C(=O)N[C@@H](Cc1c[nH]c2ccccc12)C(=O)N[C@@H](CCCCN)C(=O)N1CCC[C@H]1C(=O)N[C@@H](CCC(=O)O)C(=O)O [QDGQXYNDKDVWKPE] (H-QDGQ[Cit]YNDKDVWKPE-OH; N-terminus and C-terminus assumed)

1: 1.0; 2: 0.318; 3: 1.0; 4: 1.0
